assay: Drug degradation of the compound at 40 degC/89 % relative humidity; format: physicochemical; conditions: read-out: Drug degradation
Metric: degraded (%)
Report the figure in % without appending any unit label.

Let me know recorded degraded for C[C@@]1(c2cc(NC(=O)c3ccc(C#N)cn3)ccc2F)C=C(CF)OC(N)=N1 , thanks. 0.06

====

experiment: Dissociation constant, pKa of the compound by capillary electrophoresis method; type: physicochemical
Metric: pKa
Answer using only a numeral; do not append any unit.

Let me know recorded pKa for C[C@@]1(c2ccccc2F)CCOC(N)=N1 , thanks. 9.8
